Where do these numbers come from? They come from paper PMC5540273.

# %Inh listing for each entry below
Tested on: MLK3
Conditions: concentration: 1 μM, replicates: in singlicate; n = 1;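 also: KINOMEscan kinase panel screen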
Give the value, in units of %, as a plain number.

Enter reported %Inh observed with MLK3 for CN1C(=O)C(Nc2ccc(Cl)c(C(=O)O)c2)=C(c2ccc(Cl)cc2)C1=O
4

Enter reported %Inh observed with MLK3 for Cc1ccc(NC(=O)Nc2cc(C(C)(C)C)nn2-c2ccccc2)cc1
12

Enter reported %Inh observed with MLK3 for Cc1ccc(-c2cc(-c3c[nH]nc3-c3ccccn3)ccn2)cc1
15

Enter reported %Inh observed with MLK3 for COc1ccc(Nc2nccc(NCCNC(=O)Nc3ccccc3F)n2)cc1
25

Enter reported %Inh observed with MLK3 for COc1cccc(-c2cc(-c3c[nH]nc3-c3ccccn3)ccn2)c1
9

Enter reported %Inh observed with MLK3 for Cl.Oc1ccc(-c2nc(-c3ccccc3)[nH]c2-c2ccncc2)cc1
0

---

# %Inh listing for each entry below
Test system: PAK7
Conditions: concentration: 1 μM, replicates: in singlicate; n = 1
Give the value, in units of %, as a plain number.

>  <Compound>
CN1C(=O)C(Nc2ccc(Cl)c(C(=O)O)c2)=C(c2ccc(Cl)cc2)C1=O

>  <Result unit>
%

>  <Numeric readout>
10

$$$$
>  <Compound>
Cl.c1ccc(-c2n[nH]cc2-c2ccnc(-c3ccc(CN4CCOCC4)cc3)c2)nc1

>  <Result unit>
%

>  <Numeric readout>
0

$$$$
>  <Compound>
CS(=O)(=O)c1ccc(-c2c(-c3ncn[nH]3)sc(N3CCOCC3)c2C#N)cc1

>  <Result unit>
%

>  <Numeric readout>
0

$$$$
>  <Compound>
Cl.Oc1ccc(-c2nc(-c3ccccc3)[nH]c2-c2ccncc2)cc1

>  <Result unit>
%

>  <Numeric readout>
0

$$$$
>  <Compound>
O=C(Nc1ccccc1)Nc1cccc(Oc2ccc3nccn3n2)c1

>  <Result unit>
%

>  <Numeric readout>
29

$$$$

Enter reported %Inh observed with PAK7 for C[C@@H]1CCCCN1c1cc(-c2ccc3c(N)n[nH]c3c2)nc(N)n1
0

Enter reported %Inh observed with PAK7 for CC(C)(C)c1ccc(C(=O)Nc2cn3cc(Cl)ccc3n2)cc1
27

Enter reported %Inh observed with PAK7 for CC(=O)Nc1nc2cnc(Nc3cc(NC(=O)c4cccc(CCC#N)c4)ccc3C)nc2s1
0

Enter reported %Inh observed with PAK7 for CCn1c(-c2cccnc2O)nc2cnccc21
3

---

Tested on: CAMK1B
Settings: concentration: 1 μM, replicates: in singlicate; n = 1
# %Inh listing for each entry below
Give the value, in units of %, as a plain number.

Known %Inh results, listed for orientation:
>  <Compound>
Cc1c(O)cccc1Nc1ccnc2ccc(C(F)(F)F)cc12.Cl

>  <%Inh, %>
2

$$$$
>  <Compound>
Cl.O=C(Nc1cccc(-c2nn3ncccc3c2-c2ccnc(Nc3cccnc3)n2)c1)c1c(F)cccc1F

>  <%Inh, %>
27

$$$$
>  <Compound>
Nc1ncnc2[nH]c(-c3ccccc3)nc12

>  <%Inh, %>
29

$$$$
>  <Compound>
COc1cc2nccc(Nc3ccc(NC(=O)c4ccc(C)cc4)c(O)c3)c2cc1OC.Cl

>  <%Inh, %>
0

$$$$

Enter reported %Inh observed with CAMK1B for Cc1nnc(-c2ccc3occ(-c4ccc(S(C)=O)cc4)c3c2)[nH]1 (stereo not shown)
1

Enter reported %Inh observed with CAMK1B for CS(=O)(=O)c1ccc(-c2c(-c3ncn[nH]3)sc(N3CCOCC3)c2C#N)cc1
25

Enter reported %Inh observed with CAMK1B for Cl.NC(=O)c1cccc(Nc2nccc(Nc3ccc(Oc4cccc(Cl)c4)c(Cl)c3)n2)c1
0

Enter reported %Inh observed with CAMK1B for CC1=C(C(=O)Nc2cc3cn[nH]c3cc2F)C(c2ccc(C(F)(F)F)cc2)CC(=O)N1 (stereo not shown)
8

Enter reported %Inh observed with CAMK1B for COc1ccccc1CNC(=O)c1cc(C(=O)c2ccccc2C)c[nH]1
7

Enter reported %Inh observed with CAMK1B for Fc1cc(Cl)ccc1Nc1ccnc2cc(I)ccc12
5

Enter reported %Inh observed with CAMK1B for O=C(O)COc1ncnc2cc(-c3ccc4[nH]ncc4c3)sc12
7

Enter reported %Inh observed with CAMK1B for Cn1ccc2ncnc(Oc3ccc(Nc4nc5ccccc5[nH]4)cc3)c21
0

Enter reported %Inh observed with CAMK1B for Cc1cccc(-c2cc(Nc3ccncc3)c3ccccc3n2)n1
25
